- System: Escherichia coli
- Test Summary: Antibacterial activity against Toho 2 (ESBL) producing Escherichia coli SR-21003 after 20 hrs by agar dilution method
- Format: functional
Quick reference: MIC of the listed items.
Just the number please, in µg/mL, no unit attached.

Worked set:
CO/N=C(\C(=O)N[C@@H]1C(=O)N2C(C(=O)[O-])=C(C[N+]3(C)CCCC3)CS[C@H]12)c1csc(N)n1	4
CNCCCn1ccc2c1ccc[n+]2CC1=C(C(=O)[O-])N2C(=O)[C@@H](NC(=O)/C(=N\O[C@H](C(=O)O)C(C)C)c3nc(N)sc3Cl)[C@H]2SC1	8
CNCCCn1ccc2c1ccc[n+]2CC1=C(C(=O)[O-])N2C(=O)[C@@H](NC(=O)/C(=N\OCC(=O)O)c3nc(N)sc3Cl)[C@H]2SC1	2
CNCCCn1ccc2c1ccc[n+]2CC1=C(C(=O)[O-])N2C(=O)[C@@H](NC(=O)/C(=N\O[C@@H](C)C(=O)O)c3nc(N)sc3Br)[C@H]2SC1	4
CNCCCn1ccc2c1ccc[n+]2CC1=C(C(=O)[O-])N2C(=O)[C@@H](NC(=O)/C(=N\OC(C)(C)C(=O)O)c3csc(N)n3)[C@H]2SC1	2

With those in mind, consider the next compound.
Which MIC is listed for CNCCCn1ccc2c1ccc[n+]2CC1=C(C(=O)[O-])N2C(=O)[C@@H](NC(=O)/C(=N\OC3(C(=O)O)CCC3)c3nc(N)sc3Cl)[C@H]2SC1 ?
4

* * *

- Tested on: Pseudomonas aeruginosa
- Test Summary: Antibacterial activity against Imipenem resistant Pseudomonas aeruginosa SR-6554 after 20 hrs by agar dilution method
- Type: functional
Parameter: MIC (µg/mL)
Kindly answer with a numeric value in µg/mL, unit omitted.

Sample records with MIC:
CNCCCn1ccc2c1ccc[n+]2CC1=C(C(=O)[O-])N2C(=O)[C@@H](NC(=O)/C(=N\OC3(C(=O)O)CCC3)c3nc(N)sc3Cl)[C@H]2SC1	16
CO/N=C(\C(=O)N[C@@H]1C(=O)N2C(C(=O)[O-])=C(C[N+]3(C)CCCC3)CS[C@H]12)c1csc(N)n1	64
CNCCCn1ccc2c1ccc[n+]2CC1=C(C(=O)[O-])N2C(=O)[C@@H](NC(=O)/C(=N\O[C@@H](C)C(=O)O)c3nc(N)sc3F)[C@H]2SC1	128
CNCCCn1ccc2c1ccc[n+]2CC1=C(C(=O)[O-])N2C(=O)[C@@H](NC(=O)/C(=N\OC(C)(C)C(=O)O)c3nc(N)sc3Cl)[C@H]2SC1	16
CNCCCn1ccc2c1ccc[n+]2CC1=C(C(=O)[O-])N2C(=O)[C@@H](NC(=O)/C(=N\O[C@@H](CO)C(=O)O)c3nc(N)sc3Cl)[C@H]2SC1	16

Now examine the next entry.
Which MIC value is on record for CNCCCn1cnc2c1ccc[n+]2CC1=C(C(=O)[O-])N2C(=O)[C@@H](NC(=O)/C(=N\OC(C)(C)C(=O)O)c3csc(N)n3)[C@H]2SC1 ?
128

* * *

- System: Escherichia coli
- Test Summary: Antibacterial activity against Toho 2 (ESBL) producing Escherichia coli SR-21003 after 20 hrs by agar dilution method
- Assay type: functional
Field 'label' (enum: t / f). Set to t when MIC is strictly under 8 µg/mL; else f.

Please indicate whether the reported MIC of CNCCCn1ccc2c1ccc[n+]2CC1=C(C(=O)[O-])N2C(=O)[C@@H](NC(=O)/C(=N\O[C@H](C)C(=O)O)c3nc(N)sc3Cl)[C@H]2SC1 is strictly below 8 µg/mL.
t

# TODO verify MIC < 8 µg/mL strictly for this compound: CNCCCn1ccc2c1ccc[n+]2CC1=C(C(=O)[O-])N2C(=O)[C@@H](NC(=O)/C(=N\O[C@@H](C)C(=O)O)c3nc(N)sc3Cl)[C@H]2SC1
t

Consider CNCCCn1ccc2c1ccc[n+]2CC1=C(C(=O)[O-])N2C(=O)[C@@H](NC(=O)/C(=N\O[C@@H](C)C(=O)O)c3nc(N)sc3F)[C@H]2SC1 . Does its MIC lie strictly below 8 µg/mL?
f

Please let me know if CNCCCn1ccc2c1ccc[n+]2CC1=C(C(=O)[O-])N2C(=O)[C@@H](NC(=O)/C(=N\O[C@@H](C)C(=O)O)c3nc(N)sc3C)[C@H]2SC1 shows MIC below 8 µg/mL.
f

# strict comparison: is reported MIC < 8 µg/mL? input = CC(C)(O/N=C(\C(=O)N[C@@H]1C(=O)N2C(C(=O)[O-])=C(C[n+]3ccccc3)CS[C@H]12)c1csc(N)n1)C(=O)O [CEFTAZIDIME]
t
